molecular target: T1, human SIRPα v2 ECD recombinant protein (tag not given) (human); assay: competitive ELISA, mFc-CD47 ECD on coated SIRPα v2 ECD
T1 construct: extracellular domain; also called ELISA microplate coated human SIRPα v2 ECD
reported metric: pIC50
# pIC50 = -log10(concentration in molar units)

Solved entries:
# binder, pIC50
rows = [
    ("hu025.023 (antibody, V domains shown, Humanized 025; also called hu025.23) VH: EVQLVQSGAEVKKPGATVKISCKVSGFNIKDYYMHWVQQAPGKGLEWIGRIDPEDAETKYAPKFQGRVTITADTSTNTAYMELSSLRSEDTAVYYCDRGLAYWGQGTLVTVSS VL: EIVLTQSPATLSLSPGERATLSCSASSSVSSSYLYWYQQKPGQAPKLWIYSTSNLASGIPARFSGSGSGTDFTLTISSLEPEDFAVYYCHQWSSYPYTFGQGTKLEIK", 8.68),
    ("hu025.060 (antibody, V domains shown, Humanized 025; also called hu025.60) VH: EVQLVQSGAEVKKPGATVKISCKASGFNIKDYYMHWVQQAPGKGLEWIGRIDPEDAETKYAPKFQGRVTITADTSTNTAYMELSSLRSEDTAVYYCDRGLAYWGQGTLVTVSS VL: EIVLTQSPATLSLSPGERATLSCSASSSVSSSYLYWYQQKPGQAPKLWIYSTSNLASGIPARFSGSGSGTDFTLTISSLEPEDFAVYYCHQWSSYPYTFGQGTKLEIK", 8.73),
]

Here is another binder to look at.
Provide only the value of recorded pIC50 for hu025.033 (antibody, V domains shown, Humanized 025) VH: EVQLVQSGAEVKKPGATVKISCKVSGFNIKDYYMHWVQQAPGKGLEWIGRIDPEDAETKYAPKFQGRVTITADTSTDTAYMELSSLRSEDTAVYYCDRGLAYWGQGTLVTVSS VL: EIVLTQSPATLSLSPGERATLSCSASSSVSSSYLYWYQQKPGQAPKLWIYSTSNLASGIPARFSGSGSGTDYTLTISSLEPEDFAVYYCHQWSSYPYTFGQGTKLEIK
8.73
